test system: Mythimna separata; assay: Insecticidal activity against fourth-instar larval stage of Mythimna separata (Oriental armyworm) in compound pretreated Zea mays L. Tangyu 10 leaves assessed as mortality at 200 mg/l at 25 +/-1 degC after 2 days; assay type: functional
MEASURED ATTRIBUTE: mortality at 200 µg/mL (%)
Give bare numbers, in %.

>  <INPUT SMILES>
CNC(=O)c1cc(Cl)cc(C)c1NC(=O)c1cc(C(=O)Nc2ccccc2)nn1-c1ncccc1Cl

>  <OBSERVED RESULT>
100

$$$$
>  <INPUT SMILES>
CC(=O)OCc1cc(C(=O)Nc2c(C)cccc2C(=O)NC2CC2)n(-c2ncccc2Cl)n1

>  <OBSERVED RESULT>
100

$$$$

For the 6 compounds below, give their mortality at 200 µg/mL values.
1. CNC(=O)c1cc(Cl)cc(C)c1NC(=O)c1cc(CNC(=O)c2ccccc2)nn1-c1ncccc1Cl
2. CCOC(=O)c1cc(C(=O)Nc2c(C)cccc2C(=O)NC(C)C)n(-c2ncccc2Cl)n1
3. CNC(=O)c1cc(Cl)cc(C)c1NC(=O)c1cc(CN)nn1-c1ncccc1Cl
4. CONC(=O)c1cc(Cl)cc(C)c1NC(=O)c1cc(COC(C)=O)nn1-c1ncccc1Cl
5. CCOC(=O)c1cc(C(=O)Nc2c(C)cc(Cl)cc2C(=O)NCc2ccccc2)n(-c2ncccc2Cl)n1
6. CNC(=O)c1cc(Cl)cc(C)c1NC(=O)c1cc(C(=O)OC2CCCCC2)nn1-c1ncccc1Cl

1: 20; 2: 100; 3: 20; 4: 100; 5: 20; 6: 100

For the 7 compounds below, give their mortality at 200 µg/mL values.
1. CNC(=O)c1cc(Cl)cc(C)c1NC(=O)c1cc(CNS(C)(=O)=O)nn1-c1ncccc1Cl
2. CC(=O)OCc1cc(C(=O)Nc2c(C)cc(Cl)cc2C(=O)NCc2ccccc2)n(-c2ncccc2Cl)n1
3. CNC(=O)c1cc(Cl)cc(C)c1NC(=O)c1cc(C=O)nn1-c1ncccc1Cl
4. CCOC(=O)c1cc(C(=O)Nc2c(C)cc(Cl)cc2C(=O)NC(C)(C)C)n(-c2ncccc2Cl)n1
5. CNC(=O)c1cc(C(=O)Nc2c(C)cc(Cl)cc2C(=O)NC(C)(C)C)n(-c2ncccc2Cl)n1
6. CNC(=O)c1cc(Cl)cc(C)c1NC(=O)c1cc(CO)nn1-c1ncccc1Cl
7. CNC(=O)c1cc(Cl)cc(C)c1NC(=O)c1cc(COC(=O)COC(C)=O)nn1-c1ncccc1Cl

[100, 100, 100, 100, 100, 100, 100]

For the 2 compounds below, give their mortality at 200 µg/mL values.
1. CNC(=O)c1cc(Cl)cc(C)c1NC(=O)c1cc(COS(C)(=O)=O)nn1-c1ncccc1Cl
2. CC(=O)OCc1cc(C(=O)Nc2c(C)cc(Cl)cc2C(=O)NC(C)(C)C)n(-c2ncccc2Cl)n1

1. 100
2. 100

Look up mortality at 200 µg/mL for this compound: CCOC(=O)c1cc(C(=O)Nc2c(C)cc(Cl)cc2C(=O)NC(C)C)n(-c2ncccc2Cl)n1
70
